Entry source: patent US4371537A

System: rhinovirus type 1A (RV-1A)
Assay: Tissue culture testing, rhinovirus type 1A in HeLa cells
Assay type: cell-based
Conditions: Enterovirus, 48 and 72 hours, NA = not active at the standard test conditions, read-out: RV-1A: lowest concentration of the compound necessary to cause a 50 percent reduction in cytopathic effect
Protocol: Monolayered HeLa cells in 16 millimeter (mm) tissue culture dishes were treated with 1 ml of culture medium (Eagles medium supplemented with fetal calf serum) containing subject compound at an appropriate concentration or containing no compound at all. Culture media such as those described herein are more fully described in standard texts, as for example, Kuchler's Biochemical Methods in Cell Culture and Virology, Dowden, Hutchinson and Ross, Inc., Stroudsberg, PA (1977). […]
measurement.type: log10 of EC50 (log10 of the value in µg/mL)
A difference of one corresponds to tenfold EC50; all values are log10 with EC50 in µg/mL.

Some solved cases for reference:
compound: CS(=O)(=O)c1cccc(Oc2ccc(Cc3ccccc3)cc2)n1 [Example 69]
recorded.result: -0.20
//
compound: O=S(=O)(c1ccc(Oc2ccc(Cl)c(Cl)c2)nc1)C1CCCCC1 [Example 58]
recorded.result: 1.40
//
compound: CCCCCCS(=O)(=O)c1ccc(Oc2ccc(C(=O)c3ccccc3)cc2)nc1 [Example 55]
recorded.result: 0.49
//
compound: CS(=O)(=O)c1ccc(Oc2ccc(Br)cc2)nc1 [Example 29]
recorded.result: -0.20
//
compound: CS(=O)(=O)c1cncc(Oc2ccc(Cl)c(Cl)c2)c1 [Example 77]
recorded.result: 0.80

Could you share what log10 of EC50 was measured for CCCCCCS(=O)(=O)c1ccc(Oc2ccc(Br)cc2)nc1 [Example 53] , tested on rhinovirus type 1A (RV-1A)?
1.40

Same for O=S(=O)(c1ccc(Oc2ccc(Br)cc2)nc1)C1CCCCC1 [Example 57]
1.40

Same for CSc1ccc(Oc2ccc(Cl)c(Cl)c2)nc1 [Example 38]
0.10

###

assay: Cytotoxicity in tissue culture testing (HeLa monolayers); type: cell-based; settings: human; HeLa cells; observed at 48 and 72 hours post-treatment; read-out: Cytotoxicity: concentration of the compound found to be toxic to the cell
measurement.type: MCC (µg/mL)
Give the quantity in µg/mL, number only.

Some solved cases for reference:
compound: CCS(=O)(=O)c1cccnc1Oc1ccc(C(=O)c2ccccc2)cc1
measurement.type: MCC
recorded.result: 50

compound: CSc1cncc(Oc2ccc(Cl)c(Cl)c2)c1
measurement.type: MCC
recorded.result: 6.25

Tell me the measured MCC of C[S+]([O-])c1cncc(Oc2ccc(Cl)c(Cl)c2)c1 (centres unmarked) , please.
25

Same for "CC(C)S(=O)(=O)c1ccc(Oc2ccc(Cl)c(Cl)c2)nc1"
12.5

Same for "CS(=O)(=O)c1cccc(Oc2ccc(C(=O)c3ccccc3)cc2)n1"
12.5

Same for "CS(=O)(=O)c1cccc(Oc2ccc(Cl)c(Cl)c2)n1"
50

Same for "CC(=O)c1ccc(Oc2ccc(S(=O)(=O)C3CCCCC3)cn2)cc1"
12.5

###

tested on: rhinovirus type 1A (RV-1A); assay: Tissue culture testing, rhinovirus type 1A in HeLa cells; assay type: cell-based; conditions: Enterovirus, 48 and 72 hours, NA = not active at the standard test conditions, read-out: RV-1A: lowest concentration of the compound necessary to cause a 50 percent reduction in cytopathic effect
Listing: EC50 of selected molecules
Give the quantity in µg/mL, number only.

input.smiles: CC(=O)c1ccc(Oc2ccc(S(C)(=O)=O)cn2)cc1
EC50 / µg/mL: 25
--
input.smiles: O=S(=O)(c1ccccc1)c1ccc(Oc2ccc(Cl)c(Cl)c2)nc1
EC50 / µg/mL: 5
--
input.smiles: O=C(c1ccccc1)c1ccc(Oc2ccc(S(=O)(=O)C3CCCCC3)cn2)cc1
EC50 / µg/mL: 3.12
--
input.smiles: CCS(=O)(=O)c1ccc(Oc2ccc(Cl)cc2)nc1
EC50 / µg/mL: 6.25

Now let's try a different one.
Tell me the measured EC50 of "CS(=O)(=O)c1cccnc1Oc1ccc(C(=O)c2ccccc2)cc1" , please.
25
